Origin of measurements: ChEMBL document CHEMBL4837258

# assay.text: AUCinfinity in CD1 mouse at 1 mg/kg, iv pretreated with ABT followed by compound treatment and measured upto 7 hrs by LC-MS/MS analysis
# Assay type: ADME, organism-based
# Parameters: route intravenous, dose 1 mg/kg, time <=7
# assay.context: in vivo
recorded.metric: AUC(0-inf) (ng·h/mL)
Numeric answer only, unit ng·h/mL assumed.

Provide only the value of recorded AUC(0-inf) for "CCc1c(F)cc(F)cc1OCC(=O)N(Cc1ccc(C#N)cc1)Cc1nnc(N)o1"
218

----------
# assay.text: Aqueous solubility of compound incubated for 90 mins under shaking condition
# Type: physicochemical
# assay.context: buffer
The following molecules are shown together with reported solubility at […] values.
Numeric answer only, unit µg/mL assumed.

These recorded examples may help you get a feel for the data.
- molecule: "[2H]C([2H])(Oc1cc(F)cc(F)c1C([2H])([2H])C([2H])([2H])[2H])C(=O)N(Cc1nnc(N)o1)Cc1ccc(S(N)(=O)=O)cc1F"
  result.value: 460
- molecule: "N#Cc1ccc(CN(Cc2nnc(N)o2)C(=O)CSc2ccccc2OC(F)(F)F)c(F)c1"
  result.value: 90
- molecule: "N#Cc1ccc(CN(Cc2nnc(N)o2)C(=O)CSc2ccccc2Cl)cn1"
  result.value: 340

Provide only the value of recorded solubility at […] for "N#Cc1ccc(CN(Cc2nnc(N)o2)C(=O)CSc2ccccc2Cl)cc1"
120

Provide only the value of recorded solubility at […] for "N#Cc1ccc(CN(Cc2nnc(N)o2)C(=O)CSc2ccccc2CC(F)(F)F)c(F)c1"
90
